Please provide measured self-aminoacylation for the entries that follow.
Tested on: biotinyl-Trp-oxazolone
procedure-details: self-aminoacylation, catalytic enhancement (BWO) (fold over background); higher = more active; k-Seq, kA / k0A0; sequences stand for … in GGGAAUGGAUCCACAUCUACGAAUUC…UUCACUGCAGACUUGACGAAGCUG
Variants at the floor of the assay were thinned out.

query: Assign self-aminoacylation to the following record: AUUCAACUAGGUCAACGGGUG [Fam2.2 aminoacylation ribozyme variant]
result: 3.38

query: Assign self-aminoacylation to the following record: AUUAGCCUGGUAAUCGAGUGA [Fam2.1 aminoacylation ribozyme variant]
result: 12.8

query: Assign self-aminoacylation to the following record: CCACACUUCAAGCUAUCGGAC [Fam1B.1 aminoacylation ribozyme variant]
result: 0.582

query: Assign self-aminoacylation to the following record: AUGACCCUGGUCAUCGAGUUA [Fam2.1 aminoacylation ribozyme variant]
result: 3.71

query: Assign self-aminoacylation to the following record: AAGUUUGAUAAUAGUCGCAAA [Fam3.1 aminoacylation ribozyme variant]
result: 1.04

query: Assign self-aminoacylation to the following record: CCACUUCAAACUAUCGGUCUG [Fam1A.1 aminoacylation ribozyme variant]
result: 1.39

query: Assign self-aminoacylation to the following record: CCACACUGCAAGAAAUCGGUC [Fam1B.1 aminoacylation ribozyme variant]
result: 1.51

query: Assign self-aminoacylation to the following record: CCUCACUUCAAGCAAUCUGUC [Fam1B.1 aminoacylation ribozyme variant]
result: 0.563

query: Assign self-aminoacylation to the following record: CUAGUUCACACAAUCGGUCUG [Fam1A.1 aminoacylation ribozyme variant]
result: 1.19

query: Assign self-aminoacylation to the following record: CUACUUCAAAGAAUCGAUCUG [Fam1A.1 aminoacylation ribozyme variant]
result: 0.506

query: Assign self-aminoacylation to the following record: CCACAAUUCAAGAAAUCGGUC [Fam1B.1 aminoacylation ribozyme variant]
result: 1.41

query: Assign self-aminoacylation to the following record: UUUCACCUAGGUCAUCGGGUU [Fam2.2 aminoacylation ribozyme variant]
result: 7.39

query: Assign self-aminoacylation to the following record: UUUCACCUACGUCAUCGGGUG [Fam2.2 aminoacylation ribozyme variant]
result: 4.58

query: Assign self-aminoacylation to the following record: CCACACUUCAAGCUUUCGGUC [Fam1B.1 aminoacylation ribozyme variant]
result: 1.1

query: Assign self-aminoacylation to the following record: CUACUUCAAACAUUCUGUCUG [Fam1A.1 aminoacylation ribozyme variant]
result: 0.543

query: Assign self-aminoacylation to the following record: CUACUUCAAACAAUCGUUCUU [Fam1A.1 aminoacylation ribozyme variant]
result: 0.574

query: Assign self-aminoacylation to the following record: CCACACUCCAAGCAAUCGGUG [Fam1B.1 aminoacylation ribozyme variant]
result: 6.72

query: Assign self-aminoacylation to the following record: CUACUGCAAACAAUGGGUCUG [Fam1A.1 aminoacylation ribozyme variant]
result: 1.12

* * *

Test system: biotinyl-Phe-oxazolone
procedure-details: self-aminoacylation, catalytic enhancement (BFO) (fold over background); higher = more active; k-Seq, kA / k0A0; sequences stand for … in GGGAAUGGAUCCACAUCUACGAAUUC…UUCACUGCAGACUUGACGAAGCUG
Fewer inactive variants are shown than the library holds.
Use 1 as the dividing line for self-aminoacylation, with the line itself on the Criterion met side and lower values as Criterion not met.

query: Item CCACACUUCAAGCGAUAGGUC [Fam1B.1 aminoacylation ribozyme variant] with self-aminoacylation of 1 or above?
result: Criterion not met

query: Item AUUCACCUAGGGCAUCGGUUG [Fam2.2 aminoacylation ribozyme variant] with self-aminoacylation of 1 or above?
result: Criterion not met

query: Item CCACACUUCAACCAAUCUGUC [Fam1B.1 aminoacylation ribozyme variant] with self-aminoacylation of 1 or above?
result: Criterion not met

query: Item CUACUUCAAAUAAUCGGUCUU [Fam1A.1 aminoacylation ribozyme variant] with self-aminoacylation of 1 or above?
result: Criterion met

query: Item AAAUUUGCUAAUAGUCGCCAG [Fam3.1 aminoacylation ribozyme variant] with self-aminoacylation of 1 or above?
result: Criterion met

query: Item CUACUUCAAUCACUCGGUCUG [Fam1A.1 aminoacylation ribozyme variant] with self-aminoacylation of 1 or above?
result: Criterion not met

query: Item CUACUUCAAUCUAUCGGUCUG [Fam1A.1 aminoacylation ribozyme variant] with self-aminoacylation of 1 or above?
result: Criterion met
